Test system: MRC5 cells
Experiment: Cell viability assay in MRC5 cells (MTT)
Details: 100 nM
QUANTITY: Cell viability at 100 nM (%)

STRUCTURE SMILES	ENDPOINT UNIT	REPORTED VALUE
COC(=O)c1cc2c(cc1C)/C(=C(/Nc1ccc(C(=O)NOCCN3CC[C@H](N(C)C)C3)cc1)c1ccccc1)C(=O)N2	%	86.5
COC(=O)c1cc2c(cc1C)/C(=C(/Nc1ccc(C(=O)N(C)OCCN3CCNCC3)cc1)c1ccccc1)C(=O)N2	%	123.5
COC(=O)c1ccc2c(c1)NC(=O)/C2=C(\Nc1ccc(C(=O)NOCCN2CCN(C)CC2)c(F)c1)c1ccccc1	%	110.7
COC(=O)c1ccc2c(c1)NC(=O)/C2=C(\Nc1ccc(C(=O)NOCCN2CCN(C)CC2)c(C)c1)c1ccccc1	%	83
COC(=O)c1cc2c(cc1C)/C(=C(/Nc1ccc(C(=O)NOCCN3CCCCC3)cc1)c1ccccc1)C(=O)N2	%	124.5
COC(=O)c1ccc2c(c1)NC(=O)/C2=C(\Nc1ccc(C(=O)N(CCN(C)C)OC)cc1)c1ccccc1	%	93.1
COC(=O)c1cc2c(cc1C)/C(=C(/Nc1ccc(C(=O)N(C)OCCN3CC4CCC(C3)N4)cc1)c1ccccc1)C(=O)N2	%	83

====

Assay: PAMPA permeability assay
Assay type: in vitro ADME
Conditions: PAMPA, pH 7, pH 7, 10 μM, 5 hr
Quick reference for Papp at 5 h, 10 μM among some molecules
QUANTITY: Papp at 5 h, 10 μM

STRUCTURE SMILES	REPORTED VALUE
COC(=O)c1cc2c(cc1C)/C(=C(/Nc1ccc(C(=O)NOCCCN(C)C)cc1)c1ccccc1)C(=O)N2	0.00146 ×10⁻⁶ cm/s
COC(=O)c1ccc2c(c1)NC(=O)/C2=C(\Nc1ccc(C(=O)NOCCN2CCOCC2)cc1)c1ccccc1	0.564 ×10⁻⁶ cm/s
COC(=O)c1cc2c(cc1C)/C(=C(/Nc1ccc(C(=O)N(C)OCCN3C[C@@H]4C[C@H]3CN4)cc1)c1ccccc1)C(=O)N2	0.0364 ×10⁻⁶ cm/s
COC(=O)c1ccc2c(c1)NC(=O)/C2=C(\Nc1ccc(C(=O)NOCCN2CCN(C)CC2)c(C)c1)c1ccccc1	0.0142 ×10⁻⁶ cm/s
COC(=O)c1cc2c(cc1C)/C(=C(/Nc1ccc(C(=O)N(C)OCCN3CCN[C@@H](C)C3)cc1)c1ccccc1)C(=O)N2	0.00628 ×10⁻⁶ cm/s
COC(=O)c1cc2c(cc1C)/C(=C(/Nc1ccc(C(=O)N(C)OCCN3CCN(CCO)CC3)cc1)c1ccccc1)C(=O)N2	0.0296 ×10⁻⁶ cm/s
COC(=O)c1ccc2c(c1)NC(=O)/C2=C(\Nc1ccc(C(=O)NOCCN(C)C)c(F)c1)c1ccccc1	0.0305 ×10⁻⁶ cm/s
CNC(=O)CN1CCN(CCON(C)C(=O)c2ccc(N/C(=C3\C(=O)Nc4cc(C(=O)OC)c(C)cc43)c3ccccc3)cc2)CC1	0.0761 ×10⁻⁶ cm/s
CCN1CCN(CCONC(=O)c2ccc(N/C(=C3\C(=O)Nc4cc(C(=O)OC)c(C)cc43)c3ccccc3)cc2)CC1	0.0301 ×10⁻⁶ cm/s
COC(=O)c1cc2c(cc1C)/C(=C(/Nc1ccc(C(=O)NOCCN3CCN(C)CC3)c(F)c1)c1ccccc1)C(=O)N2	0.0192 ×10⁻⁶ cm/s
COC(=O)c1ccc2c(c1)NC(=O)/C2=C(\Nc1ccc(S(=O)(=O)N(C)OCCN2CCN(C)CC2)cc1)c1ccccc1	30 ×10⁻⁶ cm/s
COC(=O)c1ccc2c(c1)NC(=O)/C2=C(\Nc1ccc(C(=O)NOCCN2CCC(C#N)CC2)cc1)c1ccccc1	0.00798 ×10⁻⁶ cm/s
COC(=O)c1cc2c(cc1C)/C(=C(/Nc1ccc(C(=O)NOC3CCN(C)CC3)cc1)c1ccccc1)C(=O)N2	0.00225 ×10⁻⁶ cm/s
COC(=O)c1cc2c(cc1C)/C(=C(/Nc1ccc(C(=O)NOCCN3CCCCC3)cc1)c1ccccc1)C(=O)N2	0.0768 ×10⁻⁶ cm/s
